// values below are reported cell count
experiment: sensitizers of A549 cells to miR-34 induction, primary screen, imaging, A549 dox-inducible miR-34, nuclei and caspase counts (AID 1347080); conditions: A549 miR-34 inducible, Hoechst nuclei count, 48 h; measured here: total cells without miR-34 induction; further: test concentration not given here
Please give the numeric answer without any surrounding text.

The examples below pair each entry with its known result.
molecule: C[N+](C)(C)CC#CCOC(=O)Nc1cccc(Cl)c1
cell count: 10500

molecule: CCCN(C/C=C/I)C1CCc2ccc(O)cc2C1 (stereo unspecified)
cell count: 9250

molecule: C[C@]12CC3SC3C[C@@H]1CC[C@@H]1[C@@H]2CC[C@]2(C)[C@@H](O)CC[C@@H]12 (stereo partly specified)
cell count: 10000

// returns reported cell count for input CN1C2CCC1CC(OC(c1ccccc1)c1ccccc1N)C2 (stereo unspecified)
9760

Could you do the same for CCCC[C@@H](C)[C@@H](OC(=O)C[C@@H](CC(=O)O)C(=O)O)[C@H](C[C@@H](C)C[C@H](O)CCCC[C@@H](O)C[C@H](O)[C@H](C)N)OC(=O)C[C@H](CC(=O)O)C(=O)O , please?
6060

Could you do the same for C#CC(C)(O)CC (stereo unspecified) , please?
9450

Could you do the same for C[C@]12NC(Cc3ccccc31)c1ccccc12 , please?
8230

Could you do the same for NCCCP(=O)(O)O , please?
9930
